Tested on: CCRF-CEM
assayText: Cytotoxicity against human CEM cells after 72 hrs by MTT assay
Assay type: functional, cell-based
Note to self: IC50 under 20 µM means YES, ties and anything higher get NO.

Below, 3 compounds whose answers are already recorded.
compoundSmiles: C=C(C)[C@@H]1CC[C@]2(C(=O)O)CC[C@]3(C)[C@H](CC[C@@H]4[C@@]5(C)CC[C@H](O)C(C)(C)[C@@H]5CC[C@]43C)[C@@H]12
measuredTarget: CCRF-CEM
classAssignment: NO
//
compoundSmiles: C=C(C)[C@@H]1CC[C@]2(C(=O)OC)CC[C@]3(C)[C@H](CC[C@@H]4[C@@]5(C)[C@@H](O)OC(=O)C(C)(C)[C@@H]5CC[C@]43C)[C@@H]12
measuredTarget: CCRF-CEM
classAssignment: NO
//
compoundSmiles: C=C(C)[C@@H]1CC[C@]2(C(=O)OC)CC[C@]3(C)[C@H](CC[C@@H]4[C@@]5(C)CC[C@H](OC(C)=O)C(C)(C)[C@@H]5CC[C@]43C)[C@@H]12
measuredTarget: CCRF-CEM
classAssignment: YES

In the following, a different compound is considered.
In: Could you please tell me whether IC50 recorded for C=C(C)[C@@H]1CC[C@]2(C(=O)O)CC[C@]3(C)[C@H](CC[C@@H]4[C@@]5(C)CCC(=O)C(C)(C)[C@@H]5CC[C@]43C)[C@@H]12 is less than 20 µM?
Out: YES

====

Hi there, I'd appreciate the recorded pIC50 for every entry that follows.
Test system: K562
assayText: Cytotoxicity against paclitaxel-resistant human K562 cells after 72 hrs by MTT assay
Assay type: functional, cell-based
conditionNotes: K562, 72 h
Give bare numbers, as −log10 of the molar value.

compound: C=C(C)[C@@H]1CC[C@]2(C(=O)OC)CC[C@]3(C)[C@H](CC[C@@H]4[C@@]5(C)CCC(=O)C(C)(C)[C@@H]5CC[C@]43C)[C@@H]12 [METHYL BETULONATE]
measuredTarget: K562
observationType: pIC50
measValue: 3.60

compound: C=C(C)[C@@H]1CC[C@]2(C(=O)O)CC[C@]3(C)[C@H](CC[C@@H]4[C@@]5(C)C=C(OC(C)=O)C(=O)C(C)(C)[C@@H]5CC[C@]43C)[C@@H]12
measuredTarget: K562
observationType: pIC50
measValue: 4.80

compound: C=C(C)[C@@H]1CC[C@]2(C(=O)O)CC[C@]3(C)[C@H](CC[C@@H]4[C@@]5(C)CCC(=O)C(C)(C)[C@@H]5CC[C@]43C)[C@@H]12
measuredTarget: K562
observationType: pIC50
measValue: 4.77

Proceeding to the next compound to report its pIC50.
In: Need pIC50 of C=C(C)[C@@H]1CC[C@]2(C(=O)OC(=O)[C@]34CC[C@@H](C(=C)C)[C@@H]3[C@H]3CC[C@@H]5[C@@]6(C)CC[C@H](OC(C)=O)C(C)(C)[C@@H]6CC[C@@]5(C)[C@]3(C)CC4)CC[C@]3(C)[C@H](CC[C@@H]4[C@@]5(C)CC[C@H](OC(C)=O)C(C)(C)[C@@H]5CC[C@]43C)[C@@H]12 , thanks.
Out: 3.62

====

Tested on: CCRF-CEM
assayText: Cytotoxicity against human CEM cells after 72 hrs by MTT assay
Format: functional, cell-based
Hi there, I'd appreciate the recorded IC50 for every entry that follows.
Numbers only, in µM.

List IC50 for every entry below, keeping the order given.
1. C=C(C)[C@@H]1CC[C@]2(C(=O)OC)CC[C@]3(C)[C@H](CC[C@@H]4[C@@](C)(CC(=O)OC)[C@H](C(C)(C)C(=O)OC)CC[C@]43C)[C@@H]12
2. C=C(C)[C@@H]1CC[C@]2(C(=O)OC)CC[C@]3(C)[C@H](CC[C@@H]4[C@@]5(C)C=C(OC)C(=O)C(C)(C)[C@@H]5CC[C@]43C)[C@@H]12
3. C=C(C)[C@@H]1CC[C@]2(C(=O)O)CC[C@]3(C)[C@H](CC[C@@H]4[C@@]5(C)CC[C@H](OC(C)=O)C(C)(C)[C@@H]5CC[C@]43C)[C@@H]12

Out:
250
5
200

List IC50 for every entry below, keeping the order given.
1. C=C(C)[C@@H]1CC[C@]2(C(=O)OC)CC[C@]3(C)[C@H](CC[C@@H]4[C@@](C)(CC(=O)O)[C@H](C(C)(C)C(=O)O)CC[C@]43C)[C@@H]12
2. C=C(C)[C@@H]1CC[C@]2(C(=O)O)CC[C@]3(C)[C@H](CC[C@@H]4[C@@](C)(CC(=O)O)[C@H](C(C)(C)C(=O)O)CC[C@]43C)[C@@H]12
3. C=C(C)[C@@H]1CC[C@]2(C(=O)OC)CC[C@]3(C)[C@H](CC[C@@H]4[C@@]5(C)C=C(OC(C)=O)C(=O)C(C)(C)[C@@H]5CC[C@]43C)[C@@H]12
4. C=C(C)[C@@H]1CC[C@]2(C(=O)O)CC[C@]3(C)[C@H](CC[C@@H]4[C@@]5(C)C=C(O)C(=O)C(C)(C)[C@@H]5CC[C@]43C)[C@@H]12

Out:
1. 113
2. 250
3. 91
4. 4

Source: ChEMBL document CHEMBL1151244
